Can you tell me Dmax for the items I'm about to list?
Biological target: NEK7 (Homo sapiens (Human), UniProt Q8TDX7+Q96SW2)
Sequence (Q8TDX7 whole entry): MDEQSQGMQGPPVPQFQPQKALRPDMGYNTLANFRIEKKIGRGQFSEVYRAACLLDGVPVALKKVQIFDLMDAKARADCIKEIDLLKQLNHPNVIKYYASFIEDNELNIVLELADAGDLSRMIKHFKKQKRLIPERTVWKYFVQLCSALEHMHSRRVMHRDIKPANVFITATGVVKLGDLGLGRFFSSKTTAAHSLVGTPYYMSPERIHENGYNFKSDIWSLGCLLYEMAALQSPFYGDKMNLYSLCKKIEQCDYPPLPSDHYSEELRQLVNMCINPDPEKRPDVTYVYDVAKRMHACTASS
Sequence (Q96SW2 whole entry): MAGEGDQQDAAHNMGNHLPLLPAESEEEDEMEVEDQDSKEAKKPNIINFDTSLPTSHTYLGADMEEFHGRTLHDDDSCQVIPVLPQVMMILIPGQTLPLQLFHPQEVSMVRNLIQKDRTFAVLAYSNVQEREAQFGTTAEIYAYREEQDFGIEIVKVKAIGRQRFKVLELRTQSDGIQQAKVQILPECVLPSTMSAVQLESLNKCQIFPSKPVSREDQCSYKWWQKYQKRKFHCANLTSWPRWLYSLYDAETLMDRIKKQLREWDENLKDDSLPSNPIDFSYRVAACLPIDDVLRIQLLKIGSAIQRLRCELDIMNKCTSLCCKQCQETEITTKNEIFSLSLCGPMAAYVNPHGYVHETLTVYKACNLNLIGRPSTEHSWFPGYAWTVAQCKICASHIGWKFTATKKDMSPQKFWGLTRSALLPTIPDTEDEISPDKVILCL
Sequence (Q16531 2-1140 partner): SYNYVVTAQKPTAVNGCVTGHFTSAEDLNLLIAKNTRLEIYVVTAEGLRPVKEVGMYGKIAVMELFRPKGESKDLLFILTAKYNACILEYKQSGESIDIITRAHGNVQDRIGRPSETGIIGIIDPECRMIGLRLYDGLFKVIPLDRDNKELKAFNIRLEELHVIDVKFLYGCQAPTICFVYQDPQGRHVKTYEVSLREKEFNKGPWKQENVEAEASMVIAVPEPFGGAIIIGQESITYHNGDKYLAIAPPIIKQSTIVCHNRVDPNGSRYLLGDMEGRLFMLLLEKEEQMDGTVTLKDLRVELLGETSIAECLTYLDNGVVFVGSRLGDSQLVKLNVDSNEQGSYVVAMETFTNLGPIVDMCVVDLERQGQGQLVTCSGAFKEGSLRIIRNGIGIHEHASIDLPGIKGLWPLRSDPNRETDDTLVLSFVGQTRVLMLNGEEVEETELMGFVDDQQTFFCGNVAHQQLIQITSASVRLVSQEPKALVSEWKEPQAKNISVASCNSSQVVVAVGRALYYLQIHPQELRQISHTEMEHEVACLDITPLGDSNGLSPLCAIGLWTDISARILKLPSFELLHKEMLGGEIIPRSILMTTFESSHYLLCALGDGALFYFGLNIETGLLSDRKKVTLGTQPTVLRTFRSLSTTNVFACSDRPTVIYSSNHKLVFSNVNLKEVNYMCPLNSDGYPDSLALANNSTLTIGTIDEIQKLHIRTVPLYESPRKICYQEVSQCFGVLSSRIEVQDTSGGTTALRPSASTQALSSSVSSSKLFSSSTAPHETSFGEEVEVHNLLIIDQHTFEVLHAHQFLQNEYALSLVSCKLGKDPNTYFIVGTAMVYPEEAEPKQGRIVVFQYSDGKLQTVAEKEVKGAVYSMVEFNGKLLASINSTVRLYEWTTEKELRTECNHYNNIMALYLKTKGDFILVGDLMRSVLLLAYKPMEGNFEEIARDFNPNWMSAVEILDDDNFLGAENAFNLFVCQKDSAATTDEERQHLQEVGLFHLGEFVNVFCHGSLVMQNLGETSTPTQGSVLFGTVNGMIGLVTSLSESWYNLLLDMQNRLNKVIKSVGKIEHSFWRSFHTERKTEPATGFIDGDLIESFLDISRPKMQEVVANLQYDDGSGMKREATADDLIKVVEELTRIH
Assay: NEK7 NanoBiT degradation assay in Cal51 NEK7 NanoBiT cell line
Format: cell-based
Details: CAL-51; NEK7 degradation, Cal51 NEK7 NanoBiT cells, 24 hours; read-out: NanoBiT Dmax

Problem: If you can, please state the reported Dmax value of CC(C)(C(=O)NCc1cc(Cl)c(C2CCC(=O)NC2=O)c(Cl)c1)c1ccc2ncoc2n1 (stereo not shown) .
Result: > 75%

Problem: Item under review: CC(C)(C(=O)NCc1cc(Cl)c(C2CCC(=O)NC2=O)c(Cl)c1)c1ccc(CC#N)nn1 (stereo not shown) . Reported Dmax?
Result: ≤ 50%

Problem: // Dmax lookup, key: CCOc1cnc(C(C)(C)C(=O)NCc2cc(F)c(C3CCC(=O)NC3=O)c(Cl)c2)cn1 (stereo not shown)
Result: > 75%

Problem: So what's the measured Dmax for this one? O=C1CCC(c2c(Cl)cc(CNC(=O)C3(c4ccc5[nH]ncc5c4)CCOCC3)cc2Cl)C(=O)N1 (stereo not shown)
Result: > 75%

Problem: What does the record list as Dmax for CC(C)(C(=O)NCc1cc(Cl)c(C2CCC(=O)NC2=O)c(Cl)c1)c1cn(C(C)(F)F)c(=O)cn1 (stereo not shown) ?
Result: > 75%

Problem: GET /values?readout=Dmax&item= Cc1nnc(C2(C(=O)NCc3cc(Cl)c(C4CCC(=O)NC4=O)c(Cl)c3)CCC2)o1 (stereo not shown)
Result: 50 to 75%

Problem: Suppose we examine the compound CC(C)(C(=O)NCc1cc(Cl)c(C2CCC(=O)NC2=O)c(Cl)c1)c1ccnc(C(F)F)n1 (stereo not shown) ; what Dmax value has been reported?
Result: 50 to 75%

* * *

Target: CRBN-DDB1 (Homo sapiens (Human))
Sequence (Q16531 whole entry partner, one chain of several): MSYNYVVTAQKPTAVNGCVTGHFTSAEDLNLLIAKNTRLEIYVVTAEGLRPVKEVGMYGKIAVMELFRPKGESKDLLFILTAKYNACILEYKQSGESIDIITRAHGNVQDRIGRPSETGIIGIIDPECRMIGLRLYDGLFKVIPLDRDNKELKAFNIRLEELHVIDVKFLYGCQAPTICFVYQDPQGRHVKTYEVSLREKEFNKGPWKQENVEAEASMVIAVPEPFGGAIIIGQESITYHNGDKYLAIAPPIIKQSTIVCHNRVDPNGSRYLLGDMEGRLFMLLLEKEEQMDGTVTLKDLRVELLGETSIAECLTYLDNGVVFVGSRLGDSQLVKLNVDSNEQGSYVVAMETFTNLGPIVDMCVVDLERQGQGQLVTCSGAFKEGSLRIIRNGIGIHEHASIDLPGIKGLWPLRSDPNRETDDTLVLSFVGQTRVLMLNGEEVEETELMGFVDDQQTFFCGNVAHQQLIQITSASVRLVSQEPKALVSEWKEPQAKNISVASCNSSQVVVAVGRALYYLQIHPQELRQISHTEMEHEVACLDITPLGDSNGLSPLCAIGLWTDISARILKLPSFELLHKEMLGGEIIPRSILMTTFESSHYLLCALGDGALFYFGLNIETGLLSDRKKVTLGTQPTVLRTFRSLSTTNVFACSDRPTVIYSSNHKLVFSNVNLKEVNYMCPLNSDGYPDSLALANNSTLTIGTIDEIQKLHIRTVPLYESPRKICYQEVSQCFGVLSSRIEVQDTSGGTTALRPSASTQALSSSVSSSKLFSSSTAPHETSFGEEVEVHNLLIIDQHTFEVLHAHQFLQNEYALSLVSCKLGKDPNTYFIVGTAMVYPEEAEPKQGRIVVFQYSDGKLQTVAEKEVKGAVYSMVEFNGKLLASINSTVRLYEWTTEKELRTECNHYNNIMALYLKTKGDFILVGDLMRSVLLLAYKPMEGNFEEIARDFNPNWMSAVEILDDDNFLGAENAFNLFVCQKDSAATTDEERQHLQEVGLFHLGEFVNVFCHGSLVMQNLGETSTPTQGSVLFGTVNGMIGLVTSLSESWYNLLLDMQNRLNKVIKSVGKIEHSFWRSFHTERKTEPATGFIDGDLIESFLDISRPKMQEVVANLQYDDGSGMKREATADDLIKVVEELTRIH
Assay: Compound binding to CRBN by HTRF assay
Conditions: HTRF class; Cereblon binding
pEC50: −log10 of the molar value.
QUANTITY MEASURED: pEC50

Problem: GET /values?readout=pEC50&item= O=C1CCC(c2c(Cl)cc(CNC(=O)C3(c4ccnc(F)c4)CC(F)(F)C3)cc2Cl)C(=O)N1 (stereo not shown)
Result: ≥ 7.00

Problem: Any idea what its pEC50 is? The compound is CC(C)(C(=O)NCc1cc(Cl)c(C2CCC(=O)NC2=O)c(Cl)c1)c1ccc(C(F)F)nn1 (stereo not shown)
Result: 6.00 to 7.00

Problem: Name the reported pEC50 value associated with the compound CC(C)(C(=O)NCc1cc(Cl)c(C2CCC(=O)NC2=O)c(Cl)c1)c1ccccn1 (stereo not shown)
Result: ≥ 7.00

Problem: // lookup pEC50 for CC(C)(C(=O)NCc1cc(Cl)c(C2CCC(=O)NC2=O)c(Cl)c1)c1cnc(C#N)nc1 (stereo not shown)
Result: 6.00 to 7.00

Problem: Which measured pEC50 value corresponds to CC(C)(C(=O)NCc1cc(Cl)c(C2CCC(=O)NC2=O)c(Cl)c1)c1ccc2[nH]ncc2c1 (stereo not shown) ?
Result: ≥ 7.00

Problem: I would be grateful if you could share the reported pEC50 for CCOc1cnc(C(C)(C)C(=O)NCc2cc(Cl)c(C3CCC(=O)NC3=O)c(Cl)c2)cn1 (stereo not shown) .
Result: ≥ 7.00

Problem: Suppose we examine the compound CC(C)(C(=O)NCc1cc(Cl)c(C2CCC(=O)NC2=O)c(Cl)c1)c1ccc2[nH]ccc2c1 (stereo not shown) ; what pEC50 value has been reported?
Result: ≥ 7.00

Problem: Entry CC(C)(C(=O)NCc1cc(Cl)c(C2CCC(=O)NC2=O)c(Cl)c1)c1cccc(C(N)=O)c1 (stereo not shown) has what pEC50?
Result: 6.00 to 7.00

Problem: Reported pEC50, compound Cn1ncc2ccc(C3(C(=O)NCc4cc(Cl)c(C5CCC(=O)NC5=O)c(Cl)c4)CC(=O)C3)cc21 (stereo not shown) : ____
Result: ≥ 7.00

Problem: Sample CC(C)(C(=O)NCc1cc(Cl)c(C2CCC(=O)NC2=O)c(Cl)c1)c1cncc(F)c1 (stereo not shown) — what was its pEC50?
Result: ≥ 7.00

Problem: Given COc1cnc(C(C)(C)C(=O)NCc2cc(F)c(C3CCC(=O)NC3=O)c(Cl)c2)cn1 (stereo not shown) , state its recorded pEC50.
Result: ≥ 7.00

Problem: Which pEC50 value is on record for CC(C)(C(=O)NCc1cc(Cl)c(C2CCC(=O)NC2=O)c(Cl)c1)c1cnc2ncsc2c1 (stereo not shown) ?
Result: ≥ 7.00

Problem: Bench note: what pEC50 did CC(C)(C(=O)NCc1cc(Cl)c(C2CCC(=O)NC2=O)c(Cl)c1)c1ncc(C(F)F)cn1 (stereo not shown) show?
Result: 6.00 to 7.00

Problem: Item under review: Cc1ccnc(C(C)(C)C(=O)NCc2cc(Cl)c(C3CCC(=O)NC3=O)c(Cl)c2)n1 (stereo not shown) . Reported pEC50?
Result: 6.00 to 7.00

Problem: What does the record list as pEC50 for Cn1ncc2ccc(C(C)(C)C(=O)NCc3cc(Cl)c(C4CCC(=O)NC4=O)c(Cl)c3)cc21 (stereo not shown) ?
Result: ≥ 7.00

Problem: What does the data say about its pEC50? Entry: CC(C)(C(=O)NCc1cc(Cl)c(C2CCC(=O)NC2=O)c(Cl)c1)c1ccc(O)c(F)c1 (stereo not shown)
Result: ≥ 7.00

Problem: Param item = CC(C)(C(=O)NCc1ccc(C2CCC(=O)NC2=O)c(Cl)c1)c1cccc(F)c1 (stereo not shown) ; retrieve measured pEC50.
Result: 6.00 to 7.00

Problem: Entry CC(C)(C(=O)NCc1cc(Cl)c(C2CCC(=O)NC2=O)c(Cl)c1)c1cc(F)nc(F)c1 (stereo not shown) : reported pEC50 = ?
Result: 6.00 to 7.00

Problem: Find the recorded pEC50 belonging to CC(C)(C(=O)NCc1ccc(C2CCC(=O)NC2=O)c(Cl)c1)c1cccc(C#N)c1 (stereo not shown) and report it.
Result: 6.00 to 7.00

Problem: Query: pEC50; subject: CC(C)(C(=O)NCc1cc(Cl)c(C2CCC(=O)NC2=O)c(Cl)c1)c1ncccn1 (stereo not shown)
Result: 6.00 to 7.00

Problem: Which pEC50 is listed for COc1ccc(C(C)(C)C(=O)NCc2cc(F)c(C3CCC(=O)NC3=O)c(Cl)c2)nc1 (stereo not shown) ?
Result: ≥ 7.00

Problem: Value lookup for pEC50; key = Cc1ocnc1C(C)(C)C(=O)NCc1cc(Cl)c(C2CCC(=O)NC2=O)c(Cl)c1 (stereo not shown)
Result: 6.00 to 7.00

Problem: # pEC50 lookup, item Cc1cnc(C(C)(C)C(=O)NCc2cc(Cl)c(C3CCC(=O)NC3=O)c(Cl)c2)nc1 (stereo not shown)
Result: 6.00 to 7.00

Problem: Consider the compound CC(F)(F)c1cnc(C(C)(C)C(=O)NCc2cc(Cl)c(C3CCC(=O)NC3=O)c(Cl)c2)nc1 (stereo not shown) and give its measured pEC50.
Result: 6.00 to 7.00

Problem: Value lookup for pEC50; key = O=C1CCC(c2c(Cl)cc(CNC(=O)C3(c4ccc(F)cc4)CCOC3)cc2Cl)C(=O)N1 (stereo not shown)
Result: ≥ 7.00

Problem: Requested field: pEC50. Item: Cn1ncc2ccc(C3(C(=O)NCc4cc(Cl)c(C5CCC(=O)NC5=O)c(Cl)c4)CCOCC3)cc21 (stereo not shown)
Result: ≥ 7.00

Problem: Data request, read-out pEC50, for CNS(=O)(=O)c1ccc(C(C)(C)C(=O)NCc2cc(Cl)c(C3CCC(=O)NC3=O)c(Cl)c2)cc1 (stereo not shown)
Result: ≥ 7.00

Problem: Given CC(C)(C(=O)NCc1cc(Cl)c(C2CCC(=O)NC2=O)c(Cl)c1)c1cccc2ocnc12 (stereo not shown) , state its recorded pEC50.
Result: 6.00 to 7.00

Problem: What value of measured pEC50 is listed for CC(C)(C(=O)NCc1cc(Cl)c([C@H]2CCC(=O)NC2=O)c(Cl)c1)c1ncc(C#N)cn1 (single isomer, unassigned) ?
Result: < 6.00

Problem: Param item = CC(C)(C(=O)NCc1ccc(C2CCC(=O)NC2=O)c(Cl)c1)c1ccccc1 (stereo not shown) ; retrieve measured pEC50.
Result: 6.00 to 7.00

Problem: # pEC50 lookup, item Cc1cc(C(C)(C)C(=O)NCc2cc(Cl)c(C3CCC(=O)NC3=O)c(Cl)c2)ccn1 (stereo not shown)
Result: ≥ 7.00
